assay: Permeability across Caco-2 cells from basolateral to apical side; assay type: ADME, cell-based; conditions: human, read-out: permeability
READOUT KIND: Papp B→A (×10⁻⁶ cm/s)

CN(C)CC1CCC(CNc2nc(NCc3ccccc3Cl)ncc2[N+](=O)[O-])CC1 (centres undefined) ... 10.2

a. O=[N+]([O-])c1cnc(NCc2ccccc2Cl)nc1NCC1CCNCC1
b. CSc1ccccc1CNc1ncc([N+](=O)[O-])c(NCC2CCC(CN)CC2)n1 (centres undefined)
c. NCC1CCC(CNc2nc(NCc3ccccc3Cl)ncc2[N+](=O)[O-])CC1 (centres undefined)
Sequence the entries by Papp B→A, beginning with the highest number. // list labels; follow requested order
a, c, b
(a: 10.6 ×10⁻⁶ cm/s, c: 6.9 ×10⁻⁶ cm/s, b: 1.9 ×10⁻⁶ cm/s)

###

assay: Permeability across Caco-2 cells from apical to basolateral side; assay type: ADME, cell-based; conditions: human, read-out: permeability
READOUT KIND: Papp A→B (×10⁻⁶ cm/s)

a. CSc1ccccc1CNc1ncc([N+](=O)[O-])c(NCC2CCC(CN)CC2)n1 (centres undefined)
b. NCC1CCC(CNc2nc(NCc3ccccc3Cl)ncc2[N+](=O)[O-])CC1 (centres undefined)
c. O=[N+]([O-])c1cnc(NCc2ccccc2Cl)nc1NCC1CCNCC1
List from greatest to least Papp A→B. // list labels; follow requested order
c, b, a
(c: 8.1 ×10⁻⁶ cm/s, b: 4 ×10⁻⁶ cm/s, a: 1.6 ×10⁻⁶ cm/s)

###

molecular target: UniProtKB Q04759; assay: Inhibition of PKCtheta by FP assay
Sequence (Q04759 whole entry): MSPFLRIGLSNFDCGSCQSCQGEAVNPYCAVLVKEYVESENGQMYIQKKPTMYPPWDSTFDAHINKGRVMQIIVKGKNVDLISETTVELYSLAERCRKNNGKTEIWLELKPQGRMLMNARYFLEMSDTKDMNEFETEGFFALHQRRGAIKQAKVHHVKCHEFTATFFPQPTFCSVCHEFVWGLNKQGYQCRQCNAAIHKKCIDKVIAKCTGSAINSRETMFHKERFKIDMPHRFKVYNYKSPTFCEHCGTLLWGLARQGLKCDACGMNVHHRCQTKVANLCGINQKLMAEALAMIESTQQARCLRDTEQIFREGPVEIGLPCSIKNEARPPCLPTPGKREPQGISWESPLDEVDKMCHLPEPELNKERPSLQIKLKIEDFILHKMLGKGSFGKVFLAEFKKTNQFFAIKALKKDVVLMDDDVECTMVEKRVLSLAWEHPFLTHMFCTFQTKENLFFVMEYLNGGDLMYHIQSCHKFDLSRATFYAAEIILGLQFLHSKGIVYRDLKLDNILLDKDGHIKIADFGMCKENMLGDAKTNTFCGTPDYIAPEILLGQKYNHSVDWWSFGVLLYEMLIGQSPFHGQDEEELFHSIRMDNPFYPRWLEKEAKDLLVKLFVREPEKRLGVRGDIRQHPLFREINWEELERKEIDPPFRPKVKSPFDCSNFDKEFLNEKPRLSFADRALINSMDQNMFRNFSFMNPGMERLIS
READOUT KIND: IC50 (nM)

# annotated cases, reported IC50 shown
NCC1CCC(CNc2nc(NCc3c(F)cccc3F)ncc2[N+](=O)[O-])CC1 (configuration not stated) ... 42
NCC1CCC(CNc2nc(NCc3cc(Cl)ccc3Cl)ncc2[N+](=O)[O-])CC1 (configuration not stated) ... 7
NCC1CCC(CNc2nc(N[C@@H]3CCc4ccccc43)ncc2[N+](=O)[O-])CC1 (some centres not stated) ... 460
Cc1ccccc1CNc1ncc([N+](=O)[O-])c(NCC2CCC(CN)CC2)n1 (configuration not stated) ... 34
C[C@@H](Nc1ncc([N+](=O)[O-])c(NCC2CCC(CN)CC2)n1)c1ccccc1 (some centres not stated) ... 5700
NCC1CCC(CNc2nc(NCc3ccccc3-c3ccccc3)ncc2[N+](=O)[O-])CC1 (configuration not stated) ... 39
NCC1CCC(CNc2nc(NCc3cc(Cl)cc(Cl)c3)ncc2[N+](=O)[O-])CC1 (configuration not stated) ... 400
NCC1CCC(CNc2nc(NCc3ccc(Cl)cc3)ncc2[N+](=O)[O-])CC1 (configuration not stated) ... 170
NCC1CCC(CNc2nc(NCc3cccc(F)c3F)ncc2[N+](=O)[O-])CC1 (configuration not stated) ... 22
CSc1ccccc1CNc1ncc([N+](=O)[O-])c(NCC2CCC(CN)CC2)n1 (configuration not stated) ... 5

1. COc1ccc(CNc2ncc([N+](=O)[O-])c(NCC3CCC(CN)CC3)n2)cc1 (configuration not stated)
2. NCC1CCC(CNc2nc(NCc3ccccc3C(F)(F)F)ncc2[N+](=O)[O-])CC1 (configuration not stated)
3. CC(C)(Nc1ncc([N+](=O)[O-])c(NCC2CCC(CN)CC2)n1)c1ccccc1 (configuration not stated)
4. NCC1CCC(CNc2nc(Nc3cccc(Cl)c3)ncc2C(F)(F)F)CC1 (configuration not stated)
Arrange the 4 entries by IC50 so the values rise. // list labels; follow requested order
2, 4, 3, 1
(2: 12 nM, 4: 640 nM, 3: 2500 nM, 1: 12000 nM)
